- measurement.target: N-terminally GST-tagged human full length recombinant Mps-1 kinase (Homo sapiens, UniProt P33981)
- Construct: N-terminally GST-tagged human full length recombinant Mps-1 kinase; purchased Invitrogen, Karslruhe, Germany PV4071
- protocol.summary: Mps-1 kinase assay (TR-FRET)
- Assay type: biochemical
- details: Mps1 IC50 [nM], 10 μM ATP, 1 μM peptide substrate, 60 min at 22° C.
value.kind: IC50 (nM)

Consider the worked cases shown below.
> print(dat)
                                   compound  quantitative.result
1  Cc1cc(-c2cnc3c(NCC(C)(C)O)cc(Nc4ccc(CCN)cc4)nn23)ccc1C(=O)NC1CC1                  1.6
2  COc1cccc(-c2cc(NCC(C)C)c3ncc(-c4ccc(C(=O)NC5CC5)cc4)n3n2)c1                  3.8
3  Cc1cc(-c2cnc3c(NCCCN4CCCCC4)cc(Oc4cccc(F)c4)nn23)ccc1C(=O)NC1CC1                  0.2

A: Cc1cc(-c2cnc3c(NCCC(F)(F)F)cc(SCCC(C)(C)C)nn23)ccc1C(=O)NC1CC1
B: Cc1cc(-c2cnc3c(NCC4CC(=O)N(C)C4)cc(-c4ccccc4CO)nn23)ccc1C(=O)NC1CC1 (stereo not drawn)
Could you check which of A and B has a smaller value for IC50? I would appreciate it if you answered with the label of your choice.
A

1: Cc1cc(-c2cnc3c(NCC(C)(C)O)cc(Nc4cccc(F)c4F)nn23)ccc1C(=O)NC1CC1
2: Cc1cc(-c2cnc3c(NCC(C)(C)O)cc(Sc4ccc(F)cc4)nn23)ccc1C(=O)NC1CC1
Which shows the larger IC50 value: 1 or 2 ? I would appreciate it if you answered with the label of your choice.
2

* * *

- measurement.target: N-terminally GST-tagged human full length recombinant Mps-1 kinase (Homo sapiens, UniProt P33981)
- Construct: N-terminally GST-tagged human full length recombinant Mps-1 kinase; purchased Invitrogen, Karslruhe, Germany PV4071
- Sequence (P33981 1-857): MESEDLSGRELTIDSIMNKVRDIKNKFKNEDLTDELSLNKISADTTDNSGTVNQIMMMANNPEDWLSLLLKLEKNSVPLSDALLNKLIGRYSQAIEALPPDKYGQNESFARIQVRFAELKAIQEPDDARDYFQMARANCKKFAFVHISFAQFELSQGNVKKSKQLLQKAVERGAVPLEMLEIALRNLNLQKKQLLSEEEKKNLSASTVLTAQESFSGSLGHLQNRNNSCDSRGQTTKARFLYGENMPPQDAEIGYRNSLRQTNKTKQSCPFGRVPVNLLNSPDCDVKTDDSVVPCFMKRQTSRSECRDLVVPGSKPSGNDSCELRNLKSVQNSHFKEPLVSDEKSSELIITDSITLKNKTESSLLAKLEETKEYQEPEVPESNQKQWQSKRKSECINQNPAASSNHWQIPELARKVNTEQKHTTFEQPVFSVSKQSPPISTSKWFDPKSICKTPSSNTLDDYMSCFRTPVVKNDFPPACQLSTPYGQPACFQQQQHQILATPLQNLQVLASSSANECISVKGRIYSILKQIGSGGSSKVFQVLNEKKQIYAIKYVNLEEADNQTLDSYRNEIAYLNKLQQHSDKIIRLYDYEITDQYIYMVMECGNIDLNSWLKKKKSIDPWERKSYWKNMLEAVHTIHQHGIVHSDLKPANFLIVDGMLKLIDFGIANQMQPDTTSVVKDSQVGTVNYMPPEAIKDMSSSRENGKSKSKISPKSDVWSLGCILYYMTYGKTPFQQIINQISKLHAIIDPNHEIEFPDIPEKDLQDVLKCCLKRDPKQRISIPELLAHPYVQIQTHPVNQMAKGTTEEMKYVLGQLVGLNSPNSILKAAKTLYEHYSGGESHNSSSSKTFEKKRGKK
- protocol.summary: Mps-1 kinase assay (TR-FRET)
- Format: biochemical
- details: Mps1 IC50 [nM], 10 μM ATP, 1 μM peptide substrate, 60 min at 22° C.
value.kind: IC50 (nM)

> print(dat)
                                   compound  value.kind  unit.info  quantitative.result
1  Cc1cc(-c2cnc3c(NCC(C)(C)O)cc(-c4ccc(F)cc4C)nn23)ccc1C(=O)NC1CC1 [Example 232]        IC50         nM                    1
2  CCNC(=O)c1ccc(-c2cnc3c(NCCN4CCOCC4)cc(Oc4ccccc4)nn23)cc1C [Example 593]        IC50         nM                    9
3  CC(C)(O)CNc1cc(Sc2ccccc2)nn2c(-c3ccc(C(=O)NC4CC4)cc3O)cnc12 [Example 51B]        IC50         nM                  1.2
4  Cc1cc(-c2cnc3c(NCC(C)(C)O)cc(Nc4ccc(F)c(F)c4)nn23)ccc1C(=O)NC1CC1 [Example 307]        IC50         nM                  0.5

1: Cc1cc(-c2cnc3c(NCCN4CCOCC4)cc(Oc4cncc(F)c4)nn23)ccc1C(=O)NC1CC1 [Example 541]
2: Cc1cc(-c2cnc3c(NCC(C)(C)N)cc(-c4ccnn4C)nn23)ccc1C(=O)NC1CC1 [Example 58]
Which shows the larger IC50 value: 1 or 2 ? I would appreciate it if you answered with the label of your choice.
2

Numbers sourced from patent US9255100B2.
